Data origin, for the record: patent US20180185504A1

Target: T1, hPRLR.mmh (soluble monomeric human PRLR) (human)
T1 construct: soluble monomeric PRLR protein
T1 chain: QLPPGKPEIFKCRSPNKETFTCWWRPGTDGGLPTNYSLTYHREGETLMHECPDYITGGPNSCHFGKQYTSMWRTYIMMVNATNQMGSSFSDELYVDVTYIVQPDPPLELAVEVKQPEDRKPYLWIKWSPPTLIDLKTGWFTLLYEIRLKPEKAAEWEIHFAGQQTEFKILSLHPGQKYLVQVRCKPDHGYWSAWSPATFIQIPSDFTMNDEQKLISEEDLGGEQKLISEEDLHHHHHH
Experiment: SPR (Biacore), antibody capture, 37 C
Experimental: Measurements were conducted on a T200 Biacore instrument. Kinetic association (kₐ) and dissociation (kd) rate constants were determined by processing and fitting the data to a 1:1 binding model using Scrubber 2.0 curve fitting software.
For each record, write down the corresponding kon.
Reply numerically in M⁻¹ s⁻¹, unit not repeated.

Exam item: Tell me its kon given H1H6966N (antibody, human IgG1, V domains shown, also called H2M6966N) VH: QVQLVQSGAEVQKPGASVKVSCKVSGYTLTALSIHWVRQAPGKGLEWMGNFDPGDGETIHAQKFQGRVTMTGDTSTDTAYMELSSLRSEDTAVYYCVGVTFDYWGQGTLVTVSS VL: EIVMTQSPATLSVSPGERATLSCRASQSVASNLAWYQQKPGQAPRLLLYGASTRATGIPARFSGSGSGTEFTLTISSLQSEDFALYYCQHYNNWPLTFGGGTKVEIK as the entry.
Marked response: 1.58e+06

Exam item: Tell me its kon given H1H6958N2 (antibody, human IgG1, V domains shown, also called H2M6958N2) VH: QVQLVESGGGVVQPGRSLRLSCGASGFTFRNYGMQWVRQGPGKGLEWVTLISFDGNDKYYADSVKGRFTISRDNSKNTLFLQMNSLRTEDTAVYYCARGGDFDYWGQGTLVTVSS VL: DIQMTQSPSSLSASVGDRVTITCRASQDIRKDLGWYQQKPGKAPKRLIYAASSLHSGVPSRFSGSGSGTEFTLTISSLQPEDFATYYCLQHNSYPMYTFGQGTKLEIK as the entry.
Marked response: 413000
